Biological target: PDEδ farnesyl pocket (Homo sapiens, UniProt O43924)
Sequence (O43924 whole entry): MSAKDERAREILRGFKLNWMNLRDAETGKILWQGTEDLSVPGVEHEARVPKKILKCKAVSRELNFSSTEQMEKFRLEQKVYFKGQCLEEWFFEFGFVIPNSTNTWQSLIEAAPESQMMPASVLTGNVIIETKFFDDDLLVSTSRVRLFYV
Assay: Displacement titrations of labeled probe (fluorescence polarization) for the determination of KD values
Assay type: binding
Details: Kd for the PDEδ farnesyl pocket; read-out: KD
pKd: −log10 of the molar value.
measured-quantity: pKd

{"molecule": "COc1ccc(-c2nc3ccccc3n2Cc2c(F)cccc2Cl)cc1 [Compound 50]", "measured-on": "PDEδ farnesyl pocket (Homo sapiens, UniProt O43924)", "value": "6.00 to 7.00"}
{"molecule": "CCCCc1nc2ccccc2n1Cc1ccc(Cl)cc1 [Compound 29]", "measured-on": "PDEδ farnesyl pocket (Homo sapiens, UniProt O43924)", "value": "6.00 to 7.00"}
{"molecule": "COc1cc(OC)cc(C(=O)N2CCN(c3nc4ccccc4n3Cc3ccccc3)CC2)c1 [Compound 45]", "measured-on": "PDEδ farnesyl pocket (Homo sapiens, UniProt O43924)", "value": "6.00 to 7.00"}
{"molecule": "OCC(C1CCCCC1)n1c(-c2ccccc2)nc2ccccc21 (centres unmarked) [Compound S16]", "measured-on": "PDEδ farnesyl pocket (Homo sapiens, UniProt O43924)", "value": "< 6.00"}
{"molecule": "CC(C)Cc1nc2ccccc2n1Cc1ccccc1 [Compound 32]", "measured-on": "PDEδ farnesyl pocket (Homo sapiens, UniProt O43924)", "value": "6.00 to 7.00"}

###

Biological target: PDEδ farnesyl pocket (Homo sapiens)
Experiment: Displacement titrations of labeled probe (fluorescence polarization) for the determination of KD values
Format: binding
measured-quantity: Kd

{"molecule": "Oc1ccc(Cn2c(-c3ccc(O)cc3)nc3ccccc32)cc1 [Compound 15]", "value": "25 to 100 nM"}
{"molecule": "c1ccc(Cn2c(CN3CCCCCC3)nc3ccccc32)cc1 [Compound 40]", "value": "100 to 1000 nM"}
{"molecule": "CC(C)CCn1c(CC(C)(C)C)nc2ccccc21 [Compound 35]", "value": "100 to 1000 nM"}
{"molecule": "COc1ccc(Cc2nc3ccccc3n2Cc2ccccc2)cc1 [Compound 27]", "value": "100 to 1000 nM"}

###

Reported values of pKd for individual entries
Biological target: PDEδ farnesyl pocket (Homo sapiens, UniProt O43924)
Assay: Displacement titrations of labeled probe (fluorescence polarization) for the determination of KD values
Assay type: binding
Conditions: Kd for the PDEδ farnesyl pocket; read-out: KD
Description: The resulting solution was serially diluted, holding the concentrations of S54, PDEδ and DMSO constant. The sealed plates were shaken overnight at room temperature and centrifuged at the beginning of the next day. […]
pKd: −log10 of the molar value.

{"molecule": "CCOc1ccc(CNC(=O)C2CCN(c3nc4ccccc4n3Cc3ccc(F)cc3)CC2)cc1 [Compound 20]", "pKd": "7.00 to 7.60"}
{"molecule": "CC1CCCN(C(=O)C2CCN(c3nc4ccccc4n3Cc3cccc(F)c3)CC2)C1 (centres unmarked) [Compound 23]", "pKd": "< 6.00"}
{"molecule": "Cc1ccc(OCc2nc3ccccc3n2C(C)c2ccccc2)cc1 (centres unmarked) [Compound 16]", "pKd": "6.00 to 7.00"}
{"molecule": "Oc1ccc(-c2nc3ccccc3n2Cc2ccccn2)cc1 [Compound S08]", "pKd": "< 6.00"}
{"molecule": "Fc1ccc(Cn2c(-c3cccc(Br)c3)nc3ccccc32)cc1 [Compound 43]", "pKd": "< 6.00"}
{"molecule": "Clc1cccc(Cn2c(-c3ccco3)nc3ccccc32)c1 [Compound 39]", "pKd": "6.00 to 7.00"}
{"molecule": "C=CCOc1ccc(-c2nc3ccccc3n2Cc2ccccn2)cc1 [Compound S03]", "pKd": "< 6.00"}
{"molecule": "Cc1ccccc1Cn1c(N2CCC(C(=O)NCCCN3CC(C)CC(C)C3)CC2)nc2ccccc21 (centres unmarked) [Compound 25]", "pKd": "6.00 to 7.00"}
